Test system: Chloroquine-resistant (K1) strain of P. falciparum
Test: Malaria SYBR Green I-based fluorescence (MSF) assay, K1 strain
Format: cell-based
Settings: Plasmodium falciparum, K1, 72 h, read-out: IC50 against K1
pIC50: −log10 of the molar value.
experimental readout: pIC50

[
  {
    "compound": "CCN(CC)CCCC(C)Nc1ccnc2cc(Cl)ccc12 (stereo not shown) [CQ, Chloroquine, reference compound]",
    "number": 6.60
  }
]

---

experimental readout: melting point

[
  {
    "compound": "COc1cccc([C@@H](CNC(=O)/C=C/c2ccccc2)OC(=O)/C=C/c2ccccc2)c1OC [Compound 21]",
    "result": "105 to 108 °C"
  },
  {
    "compound": "COc1ccc([C@@H](CNC(=O)CCc2ccccc2)OC(=O)/C=C/c2ccccc2)cc1OC [Compound 50]",
    "result": "112 to 114 °C"
  },
  {
    "compound": "Cc1ccc([C@@H](CNC(=O)/C=C/c2ccccc2)OC(=O)/C=C/c2ccccc2)cc1 [Compound 29]",
    "result": "139 to 140 °C"
  },
  {
    "compound": "COc1cccc([C@H](CNC(=O)/C=C/c2ccccc2)OC(=O)/C=C/c2ccccc2)c1 [Compound 14]",
    "result": "138 to 140 °C"
  },
  {
    "compound": "COc1cc([C@@H](CNC(=O)/C=C/c2ccccc2)OC(=O)/C=C/c2ccccc2)cc(OC)c1OC [Compound 5]",
    "result": "126 to 128 °C"
  },
  {
    "compound": "O=C(/C=C/c1ccccc1)OC[C@H](OC(=O)/C=C/c1ccccc1)c1ccc2ccccc2c1 [Compound 54]",
    "result": "123 to 124 °C"
  },
  {
    "compound": "O=C(/C=C/c1ccccc1)OC[C@H](OC(=O)/C=C/c1ccccc1)c1ccc2c(c1)OCO2 [Compound 36]",
    "result": "108 to 110 °C"
  },
  {
    "compound": "COc1cccc([C@H](COC(=O)/C=C/c2ccccc2)OC(=O)/C=C/c2ccccc2)c1 [Compound 16]",
    "result": "67 to 69 °C"
  },
  {
    "compound": "COc1ccccc1[C@@H](CNC(=O)/C=C/c1ccccc1)OC(=O)/C=C/c1ccccc1 [Compound 9]",
    "result": "112 to 114 °C"
  },
  {
    "compound": "O=C(/C=C/c1ccccc1)OC[C@@H](OC(=O)/C=C/c1ccccc1)c1ccc2ccccc2c1 [Compound 53]",
    "result": "120 to 121 °C"
  },
  {
    "compound": "COc1ccc([C@@H](CNC(=O)/C=C/c2ccccc2)OC(=O)/C=C/c2ccccc2)cc1OC [Compound 1]",
    "result": "132 to 135 °C"
  },
  {
    "compound": "O=C(/C=C/c1ccccc1)OC[C@@H](OC(=O)/C=C/c1ccccc1)c1ccccc1 [Compound 27]",
    "result": "131 to 133 °C"
  },
  {
    "compound": "COc1cc(/C=C/C(=O)OC[C@@H](OC(=O)/C=C/c2cc(OC)c(OC)c(OC)c2)c2cc(OC)c(OC)c(OC)c2)cc(OC)c1OC [Compound 57]",
    "result": "61 to 62 °C"
  },
  {
    "compound": "COc1ccc([C@H](CNC(=O)/C=C/c2cc(OC)c(OC)c(OC)c2)OC(=O)/C=C/c2cc(OC)c(OC)c(OC)c2)cc1OC [Compound 42]",
    "result": "138 to 140 °C"
  },
  {
    "compound": "O=C(/C=C/c1ccccc1)NC[C@@H](OC(=O)/C=C/c1ccccc1)c1ccccc1 [Compound 25]",
    "result": "181 to 183 °C"
  }
]

---

// reported IC50 for each item listed
Tested on: Chloroquine-sensitive (3D7) strain of P. falciparum
Assay: Malaria SYBR Green I-based fluorescence (MSF) assay, 3D7 strain
Assay type: cell-based
Settings: Plasmodium falciparum; P. falciparum 3D7, 72 hours incubation; read-out: IC50 against 3D7
experimental readout: IC50 (µM)

[
  {
    "record smiles": "O=C(/C=C/c1ccccc1)NC[C@@H](OC(=O)/C=C/c1ccccc1)c1ccccc1",
    "cmp": "=",
    "number": 3.85
  },
  {
    "record smiles": "CCCC(=O)O[C@H](CNC(=O)/C=C/c1ccccc1)c1ccc(OC)c(OC)c1",
    "cmp": ">",
    "number": 10
  },
  {
    "record smiles": "COc1ccc([C@@H](CNC(=O)CCc2ccccc2)OC(=O)/C=C/c2ccccc2)cc1OC",
    "cmp": ">",
    "number": 10
  },
  {
    "record smiles": "COc1ccc([C@@H](COC(=O)/C=C/c2ccccc2)OC(=O)/C=C/c2ccccc2)cc1OC",
    "cmp": ">",
    "number": 5
  },
  {
    "record smiles": "O=C(/C=C/c1ccccc1)OC[C@@H](OC(=O)/C=C/c1ccccc1)c1ccc2c(c1)OCO2",
    "cmp": ">",
    "number": 5
  },
  {
    "record smiles": "COc1cc(/C=C/C(=O)NC[C@@H](OC(=O)/C=C/c2cc(OC)c(OC)c(OC)c2)c2cc(OC)c(OC)c(OC)c2)cc(OC)c1OC",
    "cmp": "=",
    "number": 1.89
  },
  {
    "record smiles": "COc1ccc([C@@H](CNC(=O)/C=C/c2ccccc2O[Si](C)(C)C(C)(C)C)OC(=O)/C=C/c2ccccc2O[Si](C)(C)C(C)(C)C)cc1OC",
    "cmp": "=",
    "number": 8.49
  }
]

---

Test system: Chloroquine-sensitive (3D7) strain of P. falciparum
Assay: Malaria SYBR Green I-based fluorescence (MSF) assay, 3D7 strain
Format: cell-based
Conditions: Plasmodium falciparum; P. falciparum 3D7, 72 hours incubation; read-out: IC50 against 3D7
Method: The stock (5 mg/mL or 10 mM) solutions of extracts were prepared in DMSO and required dilutions were made in culture medium. Two-fold serial dilutions of test samples were made in 96 well plates and incubated with 1.0% parasitized cell suspension containing 0.8% parasitaemia (Asynchronous culture with more than 80% ring stages). The plates were incubated at 37° C. in CO2 incubator in an atmosphere of 5% CO2 and air mixture. […]
// reported IC50 for each item listed

[
  {
    "molecule": "COc1ccc([C@H](CNC(=O)c2ccccc2)OC(=O)c2ccccc2)cc1OC [Compound 40]",
    "measured on": "Chloroquine-sensitive (3D7) strain of P. falciparum",
    "IC50": "3.66 µM"
  },
  {
    "molecule": "O=C(/C=C/c1ccccc1)NC[C@H](OC(=O)/C=C/c1ccccc1)c1ccc2c(c1)OCO2 [Compound 34]",
    "measured on": "Chloroquine-sensitive (3D7) strain of P. falciparum",
    "IC50": "> 5 µM"
  },
  {
    "molecule": "COc1ccc([C@H](CNC(=O)/C=C/c2cc(OC)c(OC)c(OC)c2)OC(=O)/C=C/c2cc(OC)c(OC)c(OC)c2)cc1OC [Compound 42]",
    "measured on": "Chloroquine-sensitive (3D7) strain of P. falciparum",
    "IC50": "2.28 µM"
  },
  {
    "molecule": "COc1ccc([C@H](CNC(=O)/C=C/c2ccccc2)OC(=O)/C=C/c2ccccc2)cc1OC [Compound 2]",
    "measured on": "Chloroquine-sensitive (3D7) strain of P. falciparum",
    "IC50": "> 5 µM"
  },
  {
    "molecule": "O=C(/C=C/c1ccccc1)OC[C@@H](OC(=O)/C=C/c1ccccc1)c1ccccc1 [Compound 27]",
    "measured on": "Chloroquine-sensitive (3D7) strain of P. falciparum",
    "IC50": "> 5 µM"
  },
  {
    "molecule": "COc1ccc([C@@H](CNC(=O)/C=C/c2ccccc2)OC(=O)/C=C/c2ccccc2)cc1OC [Compound 1]",
    "measured on": "Chloroquine-sensitive (3D7) strain of P. falciparum",
    "IC50": "3.9 µM"
  },
  {
    "molecule": "COc1ccc([C@@H](CNC(=O)/C=C/c2cccc(O[Si](C)(C)C(C)(C)C)c2)OC(=O)/C=C/c2cccc(O[Si](C)(C)C(C)(C)C)c2)cc1OC [Compound 47]",
    "measured on": "Chloroquine-sensitive (3D7) strain of P. falciparum",
    "IC50": "> 10 µM"
  },
  {
    "molecule": "COc1cccc([C@@H](COC(=O)/C=C/c2ccccc2)OC(=O)/C=C/c2ccccc2)c1 [Compound 15]",
    "measured on": "Chloroquine-sensitive (3D7) strain of P. falciparum",
    "IC50": "> 5 µM"
  },
  {
    "molecule": "COc1ccc([C@@H](COC(=O)/C=C/c2ccccc2)NC(=O)/C=C/c2ccccc2)cc1OC [Compound 55]",
    "measured on": "Chloroquine-sensitive (3D7) strain of P. falciparum",
    "IC50": "> 10 µM"
  },
  {
    "molecule": "O=C(/C=C/c1ccccc1)OC[C@H](OC(=O)/C=C/c1ccccc1)c1cccc2c1OCO2 [Compound 38]",
    "measured on": "Chloroquine-sensitive (3D7) strain of P. falciparum",
    "IC50": "7.42 µM"
  },
  {
    "molecule": "O=C(/C=C/c1ccccc1)OC[C@@H](OC(=O)/C=C/c1ccccc1)c1cccc2c1OCO2 [Compound 37]",
    "measured on": "Chloroquine-sensitive (3D7) strain of P. falciparum",
    "IC50": "> 10 µM"
  },
  {
    "molecule": "COc1cccc([C@@H](CNC(=O)/C=C/c2ccccc2)OC(=O)/C=C/c2ccccc2)c1OC [Compound 21]",
    "measured on": "Chloroquine-sensitive (3D7) strain of P. falciparum",
    "IC50": "> 5 µM"
  },
  {
    "molecule": "COc1ccccc1[C@@H](COC(=O)/C=C/c1ccccc1)OC(=O)/C=C/c1ccccc1 [Compound 11]",
    "measured on": "Chloroquine-sensitive (3D7) strain of P. falciparum",
    "IC50": "3.8 µM"
  },
  {
    "molecule": "COc1ccc([C@@H](CNC(=O)/C=C/c2ccc(O[Si](C)(C)C(C)(C)C)cc2)OC(=O)/C=C/c2ccc(O[Si](C)(C)C(C)(C)C)cc2)cc1OC [Compound 48]",
    "measured on": "Chloroquine-sensitive (3D7) strain of P. falciparum",
    "IC50": "7.92 µM"
  },
  {
    "molecule": "COc1ccc([C@@H](CNC(=O)c2ccccc2)OC(=O)c2ccccc2)cc1OC [Compound 39]",
    "measured on": "Chloroquine-sensitive (3D7) strain of P. falciparum",
    "IC50": "6.67 µM"
  }
]
